- TEST TARGET: amyloglucosidase (Aspergillus niger)
- Construct: purchased Sigma Chemical Company
- Sequence (P69328 25-640): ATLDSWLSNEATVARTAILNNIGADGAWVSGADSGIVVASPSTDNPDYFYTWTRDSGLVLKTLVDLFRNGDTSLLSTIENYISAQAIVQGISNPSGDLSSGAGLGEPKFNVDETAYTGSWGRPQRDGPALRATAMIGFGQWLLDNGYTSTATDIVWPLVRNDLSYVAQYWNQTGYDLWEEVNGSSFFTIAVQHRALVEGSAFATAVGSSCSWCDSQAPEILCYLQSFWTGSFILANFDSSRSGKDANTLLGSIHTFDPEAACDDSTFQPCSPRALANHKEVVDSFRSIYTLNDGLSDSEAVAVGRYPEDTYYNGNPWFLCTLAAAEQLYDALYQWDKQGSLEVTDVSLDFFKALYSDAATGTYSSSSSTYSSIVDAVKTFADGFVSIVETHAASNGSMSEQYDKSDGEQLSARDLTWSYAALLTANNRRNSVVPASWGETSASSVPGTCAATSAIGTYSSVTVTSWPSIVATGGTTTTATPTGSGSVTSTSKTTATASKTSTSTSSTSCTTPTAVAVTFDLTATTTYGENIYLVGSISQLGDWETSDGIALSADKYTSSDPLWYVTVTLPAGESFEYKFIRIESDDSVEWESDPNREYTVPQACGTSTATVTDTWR
- ASSAY TEXT: amyloglucosidase (alpha-glucosidase) inhibition, p-nitrophenyl-alpha-D-glucoside substrate
- Format: biochemical
- RUN CONDITIONS: Example 2; p-nitrophenyl-alpha-D-glucoside substrate; read-out: apparent Ki
pKi: −log10 of the molar value.
METRIC: pKi

>>> val("OC[C@@H]1[C@@H](O)[C@H](O)[C@H]2[C@@H](O)CCN21 [australine]")
5.24

---

- TEST TARGET: beta-glucosidase
- ASSAY TEXT: beta-glucosidase inhibition, p-nitrophenyl-glycoside substrate
- RUN CONDITIONS: read-out: level which inhibited 50% of the beta-glucosidase activity
pIC50: −log10 of the molar value.
METRIC: pIC50

>>> val("O[C@H]1[C@H](O)[C@@H](O)CN2CC[C@H](O)[C@H]12 [castanospermine, reference compound]")
4.18
